# system.name: Short transient receptor potential channel 4 (Mus musculus)
# assay.overview: activators of mouse TRPC4 channel, primary screen, Fluo4 calcium, HEK293 TRPC4beta/mu-opioid cells (AID 2237)
# reported.conditions: Fluo4 calcium fluorescence, at 10 µM
About 1,500 (0.48%) of roughly 310,000 compounds were called active.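 Rule for the calls: active = B-score above 5 SD of library B-scores, and initial fluorescence ratio not above library mean plus 5 SD; inactive = the rest.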 For the sample, actives were picked, then their nearest neighbours and some compounds at random.
Response enum: 1.0 for active, 0.0 for inactive

compound	group
CC(NC(=S)Nc1ccccc1)C(c1cccs1)N1CCOCC1 (stereo unspecified)	0.0
O=C(NCCc1ccccn1)c1ccc(COc2ccccc2)o1	1.0
CCOC(=O)c1ccccc1NC(=O)c1c(N)n(C)c(=O)[nH]c1=O	0.0
O=S1(=O)CC/C(=N\Nc2ccc(F)cc2)c2ccsc21	0.0
Cc1cc(C)cc(C(=O)N(CCc2ccccc2)C2=CC3CCC(C2)N3C)c1 (stereo unspecified)	1.0
CC(C)N(Cc1ccccc1)C(=O)COC(=O)c1cnccn1	0.0

As a next step, examine the compound that follows.
State the result this test recorded for Cc1ccc(CCN2CC(C(=O)NCCc3ccccc3)CC2=O)cc1 (stereo unspecified) .
0.0

###

# system.name: Short transient receptor potential channel 4 (Mus musculus)
# assay.overview: activators of mouse TRPC4 channel, primary screen, Fluo4 calcium, HEK293 TRPC4beta/mu-opioid cells (AID 2237)
# reported.conditions: Fluo4 calcium fluorescence, at 10 µM
Screen size: about 310,000 compounds; about 1,500 (0.48%) were called active.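 How the source made its calls: active means B-score above 5 SD of library B-scores, and initial fluorescence ratio not above library mean plus 5 SD; inactive means the rest.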 The sample as a whole holds a higher share of actives than the screen did.
The categories you may choose from are 1.0 (active), 0.0 (inactive)

Worked cases, answers included:
compound	group
CCOc1ccc(S(=O)(=O)NCCC(=O)NCC(C)(C)N2CCOCC2)cc1	0.0
CCOc1ccc(N(CC(=O)NCCc2ccc(OC)cc2)S(C)(=O)=O)cc1	0.0
CC1(C)C2CCC13CS(=O)(=O)NC3C2 (stereo not given)	0.0
COC(=O)c1sc(-c2ccc(C(C)(C)C)cc2)cc1NC(=O)/C=C/C(=O)O	0.0
COc1ccc(CN2CCNC(=O)C2CC(=O)N(C)Cc2ccccn2)cc1OC (stereo not given)	0.0

What call does the record list for CN(C)CCCN(C(=O)c1ccc(S(=O)(=O)N2CCCCCC2)cc1)c1nc2cc3c(cc2s1)OCCO3 ?
0.0

Next entry: CN(CCc1cn[nH]c1)C(=O)CC1C(=O)NCCN1Cc1cccc(Oc2ccccc2)c1 (stereo not given)
0.0

How about COc1ccc(Cl)cc1S(=O)(=O)N1CCC(O)(c2ccc(Cl)cc2)CC1 ?
0.0

Same question for COc1ccc(-n2nc(C(=O)NCC(=O)N3CCC(C(N)=O)CC3)c3ccccc3c2=O)cc1OC please.
0.0

Now this one: CN(CCc1ccccn1)C(=O)c1ccc(OC2CCN(CCc3ccccc3)CC2)cc1
0.0

Also CC1(C)C=C2[C@H]3CC[C@@H]4[C@@]5(C)CCC(=O)C(C)(C)[C@@H]5CC[C@@]4(C)[C@]3(C)CC[C@@]2(C(=O)O)CC1 , if possible.
0.0

And what about the compound COc1ccc(NC(=O)CC2C(=O)NC3CCCCC3N2C(=O)c2ccc(F)cc2)cc1 (stereo not given) ?
0.0

Same thing, different compound: COc1ccc(CCN(C)C(=O)C2CCCN(Cc3ccc(OC)c(OC)c3)C2)cc1OC (stereo not given)
0.0

// same read-out, input: CN(C)CCCN(C(=O)c1ccc(S(=O)(=O)N2CCCc3ccccc32)cc1)c1nc2ccc(F)cc2s1
1.0

Next compound up: COc1ccc(CN2CCCC(C(=O)c3ccc(Cl)cc3)C2)cc1Cn1cncn1 (stereo not given)
1.0

Another: CC1CCN(C(=O)C2CCN(S(=O)(=O)N3CCC4(CC3)OCCO4)CC2)CC1
0.0

Now this one: COC(=O)CC1=NN(c2nc(C)cc(C)n2)C(=O)C1
0.0

###

# system.name: Short transient receptor potential channel 4 (Mus musculus) (UniProt Q9QUQ5)
# Sequence (Q9QUQ5 whole entry, looked up): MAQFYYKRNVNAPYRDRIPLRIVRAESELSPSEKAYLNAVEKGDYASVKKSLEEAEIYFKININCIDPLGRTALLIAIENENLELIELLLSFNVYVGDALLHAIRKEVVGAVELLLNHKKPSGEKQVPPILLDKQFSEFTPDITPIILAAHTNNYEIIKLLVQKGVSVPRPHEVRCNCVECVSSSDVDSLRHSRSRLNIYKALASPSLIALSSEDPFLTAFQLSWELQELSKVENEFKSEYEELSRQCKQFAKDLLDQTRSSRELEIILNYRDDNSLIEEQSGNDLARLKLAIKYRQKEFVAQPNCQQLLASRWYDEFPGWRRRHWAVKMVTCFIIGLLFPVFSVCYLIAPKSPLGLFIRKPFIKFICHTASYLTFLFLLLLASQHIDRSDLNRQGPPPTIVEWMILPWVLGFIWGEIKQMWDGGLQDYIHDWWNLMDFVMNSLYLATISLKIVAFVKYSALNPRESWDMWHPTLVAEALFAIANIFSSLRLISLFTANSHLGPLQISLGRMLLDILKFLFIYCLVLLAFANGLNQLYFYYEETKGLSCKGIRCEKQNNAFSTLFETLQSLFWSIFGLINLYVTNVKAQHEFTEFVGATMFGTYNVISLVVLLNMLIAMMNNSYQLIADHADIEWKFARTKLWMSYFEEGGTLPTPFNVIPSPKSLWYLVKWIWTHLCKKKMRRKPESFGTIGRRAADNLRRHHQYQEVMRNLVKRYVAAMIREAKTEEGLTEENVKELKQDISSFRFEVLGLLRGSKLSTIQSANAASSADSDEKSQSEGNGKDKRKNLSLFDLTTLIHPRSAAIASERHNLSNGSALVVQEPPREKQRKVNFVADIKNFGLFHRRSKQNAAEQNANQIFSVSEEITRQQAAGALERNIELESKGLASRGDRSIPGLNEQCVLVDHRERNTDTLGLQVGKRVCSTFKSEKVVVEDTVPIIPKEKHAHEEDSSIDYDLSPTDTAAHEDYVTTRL
# assay.overview: activators of mouse TRPC4 channel, primary screen, Fluo4 calcium, HEK293 TRPC4beta/mu-opioid cells (AID 2237)
# reported.conditions: Fluo4 calcium fluorescence, at 10 µM
Screen size: about 310,000 compounds; about 1,500 (0.48%) were called active.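 Rule for the calls: active = B-score above 5 SD of library B-scores, and initial fluorescence ratio not above library mean plus 5 SD; inactive = the rest.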 This is one part of a sample in which actives are shown more often than they occur.
# output must be one of class 1 (active), class 0 (inactive)

compound	system.name	group
COC(=O)CC(=O)N1CCN(c2ccc(Cl)c(Cl)c2)CC1	Short transient receptor potential channel 4 (Mus musculus) (UniProt Q9QUQ5)	class 0
OCCC#Cc1ccc(CN2CCN(Cc3ccsc3)C(CCO)C2)cc1 (centres undefined)	Short transient receptor potential channel 4 (Mus musculus) (UniProt Q9QUQ5)	class 0
COc1ccc(C(CNCC(=O)Nc2ccccc2F)N(C)C)cc1 (centres undefined)	Short transient receptor potential channel 4 (Mus musculus) (UniProt Q9QUQ5)	class 1
CN1CCN(NC(=O)Nc2ccc(Br)cc2)CC1	Short transient receptor potential channel 4 (Mus musculus) (UniProt Q9QUQ5)	class 0
OC(CNCCc1ccc(Cl)cc1Cl)COc1ccccc1 (centres undefined)	Short transient receptor potential channel 4 (Mus musculus) (UniProt Q9QUQ5)	class 1
COc1ccc(OCC(O)CNC(=O)Nc2ccc(Cl)cc2)cc1 (centres undefined)	Short transient receptor potential channel 4 (Mus musculus) (UniProt Q9QUQ5)	class 0
COc1ccc2nc(/N=C(\N)NC(=O)Nc3ccccc3)nc(C)c2c1	Short transient receptor potential channel 4 (Mus musculus) (UniProt Q9QUQ5)	class 0
C=CCNC(=O)C12CC3CC(C1)CC(C(=O)NCC=C)(C3)C2	Short transient receptor potential channel 4 (Mus musculus) (UniProt Q9QUQ5)	class 0

Assay outcome for Cc1ccc(S(=O)(=O)NCC(=O)N(CC(=O)NCC2CCCO2)c2cccc(F)c2)cc1 (centres undefined) : what was it?
class 0

Now consider O=C(NC1CCN(S(=O)(=O)c2ccc(F)cc2)CC1)c1ccccc1 and answer again.
class 0

Can you check CC1(C)CC(N2CCN(C(c3ccccc3)c3ccccc3)CC2)=CC(=[N+]2CCCCC2)C1 next?
class 0

Now try CCC(=O)Nc1nnc(S(=O)(=O)N(CC(C)C)c2ccccc2)s1 .
class 0

Similarly, S=C(Nc1ccc(Br)cc1Cl)NC1CCN(Cc2ccccc2)CC1 ?
class 1

Can you check CC1CN(CCCOc2ccccc2-c2ccccc2)CC(C)O1 (centres undefined) next?
class 0

Try this compound next: CN(C)C(CNC(=O)Cc1ccc([N+](=O)[O-])cc1)c1ccccc1 (centres undefined)
class 1

Also COc1ccc(N2C(=O)NC(NS(=O)(=O)c3ccc(Cl)cc3)(C(F)(F)F)C2=O)cc1 (centres undefined) , if possible.
class 0

###

# system.name: Short transient receptor potential channel 4 (Mus musculus)
# assay.overview: activators of mouse TRPC4 channel, primary screen, Fluo4 calcium, HEK293 TRPC4beta/mu-opioid cells (AID 2237)
# reported.conditions: Fluo4 calcium fluorescence, at 10 µM
Out of some 310,000 compounds screened, about 1,500 (0.48%) were called active.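 How the source made its calls: active means B-score above 5 SD of library B-scores, and initial fluorescence ratio not above library mean plus 5 SD; inactive means the rest.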 What follows is part of a selection rich in actives, with near analogues and random picks from the rest.
In this exercise, the only acceptable responses are active, inactive

Field: example entries. Status: answers known.
molecule	group
COc1ccccc1N1CCN(c2nc(C)cc(=O)[nH]2)CC1	inactive
O=C(NCc1ccccc1)C1=C[C@@H](C2CCCCC2)C[C@@H](OCc2ccc(CO)cc2)O1	active
Cc1cc(C)cc(OCC(=O)NC(C)c2ccccc2)c1 (stereo unspecified)	inactive

Given C/C(=N/OC(=O)c1ccc(Br)cc1)c1ccc(C)cc1 , state the outcome it received in this test.
inactive

For O=c1c2cc(Br)ccc2nc(-c2cccc(Cl)c2)n1O then?
active

Moving on to O=C(NCc1ccccc1)C1=C[C@H](C2CC2)C[C@H](OCc2ccc(CO)cc2)O1
inactive

###

# system.name: Short transient receptor potential channel 4 (Mus musculus)
# assay.overview: activators of mouse TRPC4 channel, primary screen, Fluo4 calcium, HEK293 TRPC4beta/mu-opioid cells (AID 2237)
# reported.conditions: Fluo4 calcium fluorescence, at 10 µM
The whole screen tested about 310,000 compounds, of which about 1,500 (0.48%) were called active.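 How the source made its calls: active means B-score above 5 SD of library B-scores, and initial fluorescence ratio not above library mean plus 5 SD; inactive means the rest.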 The list comes from a sample in which actives are over-represented; it also holds close analogues and randomly drawn compounds.
The reply should name one outcome from yes (active), no (inactive)

compound	group
COc1ccc(/C=N/N(C)C2=NS(=O)(=O)c3ccccc32)cc1OC	no
CC(C)Oc1ccc(CCC(=O)NNC(=S)NCc2ccccc2)cc1	yes
CCNc1nc(SCCOc2ccccc2)nc(N(C)C)n1	no
CC(C[N+](C)(C)C)OC(N)=O (configuration not stated)	no
COc1ccc(C[C@H]2CN3C(=NC[C@H]3C)N2CCNC(=O)CCC2CCCCC2)cc1	yes
CC#CC[N+](C)(C)CCCCCC	no

Per the records of this test, what outcome belongs to O=C(Nc1ccc(F)c(Cl)c1)C1CCN(S(=O)(=O)c2cccnc2)CC1 ?
no
